# procedure.details: Clinical Phase I single ascending dose (SAD) study, pharmacokinetics and safety
# Format: in vivo, human
# measurement.parameters: male, human, in vivo, 3 mg
readout: Cmax (µg/mL)
Return type: number; implicit unit µg/mL.

Lab note: measured Cmax of C#C[C@]1(O)CC[C@@]2(C)C(CC[C@@H]3[C@@H]2CC[C@]2(C)/C(=N/O)CC[C@@H]32)C1 (stereo partly shown) was 0.044

* * *

# procedure.details: Clinical Phase I single ascending dose (SAD) study, pharmacokinetics and safety
# Type: in vivo, human
# measurement.parameters: male, human, in vivo, 30 mg
readout: AUC(0-inf) (ng·h/mL)
Return type: number; implicit unit ng·h/mL.

Lab note: measured AUC(0-inf) of C#C[C@]1(O)CC[C@@]2(C)C(CC[C@@H]3[C@@H]2CC[C@]2(C)/C(=N/O)CC[C@@H]32)C1 (stereo partly shown) [Compound I] was 2560

* * *

# procedure.details: Solubility of 3α-ethynyl-3β-hydroxyandrostan-17-one oxime in aqueous media
# Type: physicochemical
# measurement.parameters: water
readout: Solubility (µg/mL)
Return type: number; implicit unit µg/mL.

Lab note: measured Solubility of C#C[C@]1(O)CC[C@@]2(C)C(CC[C@@H]3[C@@H]2CC[C@]2(C)/C(=N/O)CC[C@@H]32)C1 (stereo partly shown) [Compound I] was 1.5

* * *

# procedure.details: Clinical Phase I single ascending dose (SAD) study, pharmacokinetics and safety
# Assay type: in vivo, human
# measurement.parameters: male, human, in vivo, 10 mg
readout: AUC(0-inf) (ng·h/mL)
Return type: number; implicit unit ng·h/mL.

Lab note: measured AUC(0-inf) of C#C[C@]1(O)CC[C@@]2(C)C(CC[C@@H]3[C@@H]2CC[C@]2(C)/C(=N/O)CC[C@@H]32)C1 (stereo partly shown) was 785

* * *

# procedure.details: Clinical Phase I single ascending dose (SAD) study, pharmacokinetics and safety
# Format: in vivo, human
# measurement.parameters: male, human, in vivo, 1 mg
readout: AUC(0-inf) (ng·h/mL)
Return type: number; implicit unit ng·h/mL.

Lab note: measured AUC(0-inf) of C#C[C@]1(O)CC[C@@]2(C)C(CC[C@@H]3[C@@H]2CC[C@]2(C)/C(=N/O)CC[C@@H]32)C1 (stereo partly shown) was 67

* * *

# procedure.details: Clinical Phase I single ascending dose (SAD) study, pharmacokinetics and safety
# Type: in vivo, human
# measurement.parameters: male, human, in vivo, 200 mg
readout: AUC(0-inf) (ng·h/mL)
Return type: number; implicit unit ng·h/mL.

Lab note: measured AUC(0-inf) of C#C[C@]1(O)CC[C@@]2(C)C(CC[C@@H]3[C@@H]2CC[C@]2(C)/C(=N/O)CC[C@@H]32)C1 (stereo partly shown) [Compound I] was 25800

* * *

# procedure.details: Serum allopregnanolone exposure in the antagonist study
# Format: in vivo, human
# measurement.parameters: human, serum, intravenous, 0.05 mg/kg; 10 min after injection, average
readout: concentration at 10 min

Lab note: measured concentration at 10 min of CC(=O)[C@H]1CC[C@H]2[C@@H]3CC[C@H]4C[C@H](O)CC[C@]4(C)[C@H]3CC[C@]12C [Allopregnanolone, allopregnanolone, reference compound] was ~80 nM

* * *

# procedure.details: Clinical Phase I single ascending dose (SAD) study, pharmacokinetics and safety
# Format: in vivo, human
# measurement.parameters: male, human, in vivo, 30 mg
readout: Cmax

Lab note: measured Cmax of C#C[C@]1(O)CC[C@@]2(C)C(CC[C@@H]3[C@@H]2CC[C@]2(C)/C(=N/O)CC[C@@H]32)C1 (stereo partly shown) was 464 ng/mL

* * *

# procedure.details: Solubility of Compound I in different vehicles (visual inspection)
# Format: physicochemical
# measurement.parameters: propylene glycol monolaurate type I (Lauroglycol FCC), oil or lipid, thermodynamic from solid; Example 4; Propylenglycol monolaurate type I, Lauroglycol FCC; room temperature; read-out: Solubility
readout: Solubility (µg/mL)
Return type: number; implicit unit µg/mL.

Lab note: measured Solubility of C#C[C@]1(O)CC[C@@]2(C)C(CC[C@@H]3[C@@H]2CC[C@]2(C)/C(=N/O)CC[C@@H]32)C1 (stereo partly shown) [Compound I] was 6000
